Origin of measurements: paper PMC8010706

# ASSAY_SYSTEM: T1, MBP-Sbh1 full length, P52870
# T1 chain: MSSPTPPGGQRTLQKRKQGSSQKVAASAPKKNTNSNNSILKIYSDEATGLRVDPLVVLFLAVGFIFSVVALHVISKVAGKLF
# TEST_NAME: pull-down (Ni-NTA capture after coexpression, Coomassie quantification)
# CONDITION_NOTES: chain shown with the change; capture assay repeated three times; parent: 1
# ratio to parent annotations
Could you respond with only the numeric value?

Use the examples below as a reference point.
{"BINDER": "His-tagged ySgt2-C (ySgt2 222-346), Q12118 L327D (protein) SLNLEKTVPEQSRDADVDASQGASAGGLPDLGSLLGGGLGGLMNNPQLMQAAQKMMSNPGAMQNIQKMMQDPSIRQMAEGFASGGGTPNLSDLMNNPALRNMAGNDFGGAGAQSTDETPDNENKQ", "ratio to parent": 0.4}
{"BINDER": "His-tagged ySgt2-C (ySgt2 222-346), Q12118 M290D (protein) SLNLEKTVPEQSRDADVDASQGASAGGLPDLGSLLGGGLGGLMNNPQLMQAAQKMMSNPGAMQNIQKMDQDPSIRQMAEGFASGGGTPNLSDLMNNPALRNMAGNLFGGAGAQSTDETPDNENKQ", "ratio to parent": 0.18}
{"BINDER": "His-tagged hSgt2-C (hSgt2 213-313), O43765 M233D; F280D (protein) TGGVGSFDIAGLLNNPGFMSDASNLMNNPQIQQLMSGMISGGNNPLGTPGTSPSQNDLASLIQAGQQDAQQMQQQNPELIEQLRSQIRSRTPSASNDDQQE", "ratio to parent": 0.59}

IN: So what's the measured ratio to parent for this one? His-tagged ySgt2-C (ySgt2 222-346), Q12118 M277D (protein) SLNLEKTVPEQSRDADVDASQGASAGGLPDLGSLLGGGLGGLMNNPQLMQAAQKMDSNPGAMQNIQKMMQDPSIRQMAEGFASGGGTPNLSDLMNNPALRNMAGNLFGGAGAQSTDETPDNENKQ
OUT: 0.14

IN: Please give the measured ratio to parent for this binder: His-tagged hSgt2-C (hSgt2 213-313), O43765 L224D; L295D (protein) TGGVGSFDIAGDLNNPGFMSMASNLMNNPQIQQLMSGMISGGNNPLGTPGTSPSQNDLASLIQAGQQFAQQMQQQNPELIEQDRSQIRSRTPSASNDDQQE
OUT: 0.16

IN: ratio to parent for His-tagged ySgt2-C (ySgt2 222-346), Q12118 I286D (protein) SLNLEKTVPEQSRDADVDASQGASAGGLPDLGSLLGGGLGGLMNNPQLMQAAQKMMSNPGAMQNDQKMMQDPSIRQMAEGFASGGGTPNLSDLMNNPALRNMAGNLFGGAGAQSTDETPDNENKQ ?
OUT: 0.13
